- protocol-notes: qHTS for Inhibitors of Ubiquitin-specific Protease USP2a Using CHOP2 as the Reporter: Cytotox Assay (AID 652170); further: nearly all actives have a fitted effect of over 70% in size; further: potency means the concentration at half of the fitted maximal effect
- test-parameters: HCT116 viability, CellTiter-Glo luminescence, 72 h; series mostly up to 46.1 µM
Inconclusive results are not listed. Calls of active or inactive are those of the source. The call rests on the fitted dose curve; in most records, active means well fitted cell-killing curve with a large enough effect; inconclusive means small, poorly fitted or top-dose-only effect, or effect the other way; inactive means flat fitted curve, though single readings scatter.

molecular-string | Potency
Cc1ccc(-c2cc(C(=O)N3CC[S+](=O)([O-])CC3)c3ccccc3n2)cc1C | inactive
Cc1ccc(-c2cc(C(=O)Nc3ccc(S(=O)(=O)Nc4ccc(C#N)cc4)cc3)c3ccccc3n2)cc1C | inactive
CCOC(=O)c1csc(NC(=O)c2ccncc2NS(=O)(=O)c2ccc(C)cc2)n1 | inactive
Cc1ccc(S(=O)(=O)Nc2cc(C(F)(F)F)ccc2C(=O)Nc2nc(-c3ccccc3)cs2)cc1 | 2.96 µM (active)
O=C(Nc1nc(-c2ccccc2)cs1)c1ccccc1 | inactive

---

In this section, each of the compounds is paired with its reported Potency.
- study-target: Glucocorticoid receptor (Homo sapiens) (UniProt P04150)
- Sequence (P04150 whole entry, looked up): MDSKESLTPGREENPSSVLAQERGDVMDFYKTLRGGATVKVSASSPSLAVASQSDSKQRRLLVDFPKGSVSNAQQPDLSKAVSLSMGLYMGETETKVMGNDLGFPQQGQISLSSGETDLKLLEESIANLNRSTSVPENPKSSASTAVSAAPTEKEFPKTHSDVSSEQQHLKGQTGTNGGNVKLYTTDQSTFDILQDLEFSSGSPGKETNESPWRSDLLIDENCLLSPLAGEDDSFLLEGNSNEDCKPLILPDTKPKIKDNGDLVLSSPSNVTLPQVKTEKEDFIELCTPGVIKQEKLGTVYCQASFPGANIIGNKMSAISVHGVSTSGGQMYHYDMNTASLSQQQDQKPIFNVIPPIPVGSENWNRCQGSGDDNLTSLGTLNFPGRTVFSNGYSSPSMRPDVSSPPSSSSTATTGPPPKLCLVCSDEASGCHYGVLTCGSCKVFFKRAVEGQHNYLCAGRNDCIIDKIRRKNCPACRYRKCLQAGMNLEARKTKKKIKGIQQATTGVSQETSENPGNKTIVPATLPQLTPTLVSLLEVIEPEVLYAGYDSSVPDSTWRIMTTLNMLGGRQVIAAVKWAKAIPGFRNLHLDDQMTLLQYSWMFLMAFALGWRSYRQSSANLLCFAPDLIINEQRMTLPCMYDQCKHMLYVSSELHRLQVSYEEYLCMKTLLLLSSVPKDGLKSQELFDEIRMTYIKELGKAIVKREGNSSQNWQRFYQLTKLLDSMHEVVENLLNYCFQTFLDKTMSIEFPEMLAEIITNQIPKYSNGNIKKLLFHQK
- protocol-notes: GR-GFP Redistribution (AID 450); further: potency means the concentration at half of the fitted maximal effect
- test-parameters: U2OS GR-GFP nuclear translocation, laser cytometry, 2 h
The source made the active and inactive calls.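 Rule for the calls: active = compounds whose dose series gives a full or clear partial fitted curve of increased nuclear translocation; inconclusive = weak partial curve or effect only at the top dose; inactive = no dose-dependent translocation response.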

molecular-string | Potency
COc1cccc(-c2cncnc2NCc2ccccc2)c1 | > 46 µM (inactive)
COc1ncc2ncc(=O)n(Cc3cccs3)c2n1 | > 9.22 µM (inactive)
Cc1cnc(CNc2ccnc(-c3c(C)noc3C)n2)cn1 | > 46 µM (inactive)
COc1ccc(Oc2ncc3nc(C)c(=O)n(C[C@H]4CCCO4)c3n2)cc1 | > 9.22 µM (inactive)
FC(F)(F)c1ccccc1-c1nccc(NCc2cccs2)n1 | > 46 µM (inactive)
Cc1cnc(CNc2ccnc(-c3ccccc3Cl)n2)cn1 | > 46 µM (inactive)

---

- study-target: Dual specificity protein kinase CLK4 (Homo sapiens)
- protocol-notes: qHTS Assay for Inhibitors of CDC-like Kinase 4 (Kinase-Glo Assay) (AID 1770); further: nearly all actives have a fitted effect of over 65% in size
- test-parameters: recombinant Clk4, Kinase-Glo ATP depletion luminescence; series mostly up to 66.7 µM
Inconclusive results are not listed. Active and inactive are the calls of the source. Calls come from the whole dose curve; as a rule, active = well fitted inhibition curve with a large enough effect; inconclusive = small, poorly fitted or top-dose-only effect; inactive = flat fitted curve, though single readings scatter.
Outcome codes: active, inactive

molecular-string | study-target | class-name
CCNc1ncc2nc(-c3ccc(Cl)cc3)c(=O)n(C[C@H]3CCCO3)c2n1 | Dual specificity protein kinase CLK4 (Homo sapiens) | inactive
c1ccc(CNc2ncnc3ccc(-c4cccnc4)cc23)cc1 | Dual specificity protein kinase CLK4 (Homo sapiens) | active
COc1ccc(-n2c(=O)c(-c3cc(F)cc(F)c3)nc3cnc(N(C)C)nc32)cc1 | Dual specificity protein kinase CLK4 (Homo sapiens) | inactive
O=c1c(-c2ccc(Cl)cc2)nc2cnc(N3CCOCC3)nc2n1C[C@H]1CCCO1 | Dual specificity protein kinase CLK4 (Homo sapiens) | inactive
Cc1noc(C)c1-c1cc(NCc2cccnc2)ncn1 | Dual specificity protein kinase CLK4 (Homo sapiens) | active
COCCn1c(=O)cnc2cnc(OC)nc21 | Dual specificity protein kinase CLK4 (Homo sapiens) | inactive
Cc1ccccc1-c1cc(N(C)C)ncn1 | Dual specificity protein kinase CLK4 (Homo sapiens) | inactive
Cc1noc(C)c1-c1cc(NCCN2CCOCC2)ncn1 | Dual specificity protein kinase CLK4 (Homo sapiens) | active
CN1CCN(c2ncc3nc(-c4ccc(Cl)cc4)c(=O)n(Cc4cccs4)c3n2)CC1 | Dual specificity protein kinase CLK4 (Homo sapiens) | inactive
CN(C)c1ncc2nc(-c3cc(F)cc(F)c3)c(=O)n(C[C@H]3CCCO3)c2n1 | Dual specificity protein kinase CLK4 (Homo sapiens) | inactive
O=c1cnc2cnc(Nc3ccccc3)nc2n1Cc1cccs1 | Dual specificity protein kinase CLK4 (Homo sapiens) | active
CN(Cc1ccco1)c1cc(-c2ccoc2)ncn1 | Dual specificity protein kinase CLK4 (Homo sapiens) | inactive
COc1ncc2nc(-c3ccccc3)c(=O)n(C)c2n1 | Dual specificity protein kinase CLK4 (Homo sapiens) | inactive
Clc1ccccc1-c1nccc(NCc2cccs2)n1 | Dual specificity protein kinase CLK4 (Homo sapiens) | inactive
Cc1noc(C)c1-c1ccc2ncnc(N3CCN(C)CC3)c2c1 | Dual specificity protein kinase CLK4 (Homo sapiens) | active
Cc1ccccc1-c1ccc2ncnc(NC3CC3)c2c1 | Dual specificity protein kinase CLK4 (Homo sapiens) | active
COc1ccc(CNc2ncnc3ccc(-c4cccc(NS(C)(=O)=O)c4)cc23)c(OC)c1 | Dual specificity protein kinase CLK4 (Homo sapiens) | active
CN1CCN(c2nc(-c3ccccc3C(F)(F)F)nc3ccccc23)CC1 | Dual specificity protein kinase CLK4 (Homo sapiens) | inactive
Cc1cnc(CNc2ccnc(-c3ccccc3CN(C)C)n2)cn1 | Dual specificity protein kinase CLK4 (Homo sapiens) | inactive
CN(C)c1ncc2nc(-c3cccs3)c(=O)n(CCC#N)c2n1 | Dual specificity protein kinase CLK4 (Homo sapiens) | inactive
O=c1c(-c2ccccc2)nc2cnc(Nc3ccccc3)nc2n1Cc1cccs1 | Dual specificity protein kinase CLK4 (Homo sapiens) | inactive
COc1cccc(Cn2c(=O)c(-c3cn(C)c4ccccc34)nc3cnc(N4CCNCC4)nc32)c1 | Dual specificity protein kinase CLK4 (Homo sapiens) | inactive
O=c1c(-c2cccs2)nc2cnc(N3CCOCC3)nc2n1Cc1cccs1 | Dual specificity protein kinase CLK4 (Homo sapiens) | inactive

---

- study-target: Cytochrome P450 1A2 (Homo sapiens)
- protocol-notes: p450-cyp1a2 (AID 410)
- test-parameters: recombinant CYP1A2, luciferin-ME demethylation, luminescence; series mostly up to 57 µM
Records with an inconclusive call do not appear. Active and inactive are the calls of the source. Calls follow the shape of the full dose curve.
Outcomes: Yes = active, No = inactive

molecular-string | study-target | class-name
Cc1ccccc1-c1cncnc1N(C)Cc1ccco1 | Cytochrome P450 1A2 (Homo sapiens) | Yes
Cn1cccc1C(=O)N1CCC2(CCN(C(=O)Nc3cccc(F)c3)CC2)CC1 | Cytochrome P450 1A2 (Homo sapiens) | No
CN1CCN(c2nc(-c3ccccc3C(F)(F)F)nc3ccccc23)CC1 | Cytochrome P450 1A2 (Homo sapiens) | Yes
Cc1noc(C)c1-c1cc(NCc2cccs2)ncn1 | Cytochrome P450 1A2 (Homo sapiens) | Yes
CC(=O)N1CCC2(CC1)CN(C(c1ccccc1)c1ccccc1)C2 | Cytochrome P450 1A2 (Homo sapiens) | No
COc1ccc(C(=O)N2CCC3(CC2)CN(C(=O)Nc2cccc(C#N)c2)C3)cc1 | Cytochrome P450 1A2 (Homo sapiens) | No
Cc1cnc(CNc2ccnc(-c3c(C)noc3C)n2)cn1 | Cytochrome P450 1A2 (Homo sapiens) | Yes
Cn1cccc1C(=O)N1CCC2(CCCN(c3ccccc3)C2)CC1 | Cytochrome P450 1A2 (Homo sapiens) | Yes
Cc1noc(C)c1-c1cc(N(C)C)ncn1 | Cytochrome P450 1A2 (Homo sapiens) | Yes
O=C(Oc1ccccc1)N1CCC2(CC1)CCN(c1ccccc1)CC2 | Cytochrome P450 1A2 (Homo sapiens) | No
Cn1cccc1C(=O)N1CCC[C@@]2(CCN(c3ccncc3)C2)C1 | Cytochrome P450 1A2 (Homo sapiens) | Yes
O=C(Oc1ccccc1)N1CCC2(CC1)CCN(c1ncccn1)CC2 | Cytochrome P450 1A2 (Homo sapiens) | No
CCSC(N)=Nc1ccc(C(F)(F)F)cc1 | Cytochrome P450 1A2 (Homo sapiens) | Yes
Cc1cnc(CNc2ncncc2-c2c(C)noc2C)cn1 | Cytochrome P450 1A2 (Homo sapiens) | No
CN(C)Cc1ccccc1-c1nc(NCc2cccs2)c2ccccc2n1 | Cytochrome P450 1A2 (Homo sapiens) | Yes
COCC(=O)N1CCC2(CC1)CN(C(c1ccccc1)c1ccccc1)C2 | Cytochrome P450 1A2 (Homo sapiens) | No
CN(C)c1ccc(-c2nccc(NCCN3CCOCC3)n2)cc1 | Cytochrome P450 1A2 (Homo sapiens) | Yes
CNc1ccnc(-c2c(C)noc2C)n1 | Cytochrome P450 1A2 (Homo sapiens) | Yes
Clc1ccccc1-c1ccc2ncnc(N3CCNCC3)c2c1 | Cytochrome P450 1A2 (Homo sapiens) | Yes
COCCNc1cc(-c2ccccc2C(F)(F)F)ncn1 | Cytochrome P450 1A2 (Homo sapiens) | Yes
O=c1c(-c2ccc(F)cc2)nc2cnc(N3CCNCC3)nc2n1-c1ccccc1 | Cytochrome P450 1A2 (Homo sapiens) | Yes
CN(C)C(=O)c1ccc(-c2nc(NC3CCNCC3)c3ccccc3n2)cc1 | Cytochrome P450 1A2 (Homo sapiens) | Yes
O=c1cnc2cnc(Nc3ccccc3)nc2n1C1CC1 | Cytochrome P450 1A2 (Homo sapiens) | Yes
Cc1noc(C)c1C(=O)N1CCC2(CCCN(C(=O)Nc3cccc(F)c3)C2)CC1 | Cytochrome P450 1A2 (Homo sapiens) | Yes

---

- study-target: Cytochrome P450 3A4 (Homo sapiens) (UniProt P08684)
- Sequence (P08684 whole entry, looked up): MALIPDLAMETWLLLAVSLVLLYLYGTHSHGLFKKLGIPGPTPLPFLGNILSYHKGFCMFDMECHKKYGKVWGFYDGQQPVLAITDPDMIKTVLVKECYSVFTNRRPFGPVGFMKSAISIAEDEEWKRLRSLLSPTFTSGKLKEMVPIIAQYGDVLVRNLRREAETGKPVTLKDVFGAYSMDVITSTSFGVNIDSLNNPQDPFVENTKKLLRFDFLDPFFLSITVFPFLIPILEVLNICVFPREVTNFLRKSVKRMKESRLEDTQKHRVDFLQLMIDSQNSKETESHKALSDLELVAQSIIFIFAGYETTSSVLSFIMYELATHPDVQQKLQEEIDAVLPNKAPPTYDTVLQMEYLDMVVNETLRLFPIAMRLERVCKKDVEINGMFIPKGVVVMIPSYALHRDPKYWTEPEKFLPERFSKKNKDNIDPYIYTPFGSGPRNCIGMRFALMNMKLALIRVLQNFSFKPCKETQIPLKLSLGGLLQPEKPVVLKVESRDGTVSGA
- protocol-notes: qHTS Assay for Inhibitors and Substrates of Cytochrome P450 3A4 (AID 884); further: nearly all actives have a fitted effect of over 50% in size
- test-parameters: recombinant CYP3A4, Luciferin-PPXE luminescence; series mostly up to 57.1 µM
Inconclusive results are not listed. The source made the active and inactive calls. Calls follow the shape of the dose curve; as a rule, active = well fitted inhibition curve with a large enough effect; inconclusive = small, poorly fitted or top-dose-only effect; inactive = no such curve, though single readings can be large or run the other way.
Outcomes: 1.0 (active), 0.0 (inactive)

molecular-string | class-name
COCCNc1ncncc1-c1c(C)noc1C | 1.0
O=C(c1cccc(F)c1)N1CCC[C@@]2(CCN(c3ccncc3)C2)C1 | 1.0
CCCn1c(-c2ccc(F)cc2)nc2c(NCCN(C)C)nc(C)nc21 | 0.0
COc1ccccc1CNc1ncncc1-c1cccnc1 | 1.0
O=C(c1cc(C(F)(F)F)cc(C(F)(F)F)c1)N1CCC[C@@]2(CCN(Cc3ccncc3)C2)C1 | 1.0
COc1cccc(Nc2ncc3nc(C)c(=O)n(Cc4cccs4)c3n2)c1 | 1.0
CC(C)NC(=O)N1CCC2(CC1)CCN(C(=O)c1cc(C(F)(F)F)cc(C(F)(F)F)c1)CC2 | 0.0
CC(C)NC(=O)N1CC[C@@]2(CCCN(C(=O)Oc3ccccc3)C2)C1 | 0.0
CCCn1c(C)nc2c(NCCN(C(C)C)C(C)C)nc(C)nc21 | 0.0
COc1ccccc1-c1cc(NCc2cccc(C)c2)ncn1 | 1.0
Cc1noc(C)c1-c1cncnc1NCc1cccnc1 | 1.0

Data origin: PubChem BioAssay (NCATS)
